Assay: gradient 5% acetonitrile 3 min, to 50% in 2 min, to 85% in 15 min, held 3 min, 100 µL/min
Details: column: Zorbax Extend-C18 2.1 x 50 mm; eluents: water / acetonitrile, 0.1% formic acid

| Compound | Unit Of Measurement | RP-LC retention time |
| --- | --- | --- |
| CCc1ccc(NC(=O)C2CCN(C(=O)c3ncn4c3COC(c3ccc(F)cc3)C4)CC2)cc1 (configuration not stated) | s | 890 |
| Cn1c(=O)sc2cc(S(=O)(=O)N3CCC(C(=O)Nc4cccc(C(F)(F)F)c4)CC3)ccc21 | s | 970 |
| COc1ccc(C(=O)N2CCC(COc3ccc(C(=O)NC(C)C)cc3)CC2)cc1F | s | 834 |
| CCc1ccc(S(=O)(=O)c2cnc(N3CCN(c4ccccc4)CC3)nc2N)cc1 | s | 1140 |
| Cc1cccc2nnc(N3CCC(C(=O)NCc4ccccc4F)CC3)n12 | s | 591 |
| CCCC(=O)Nc1ccc2nc(N3CCN(CC(=O)N4CCCCCC4)CC3)cc(C(=O)O)c2c1 | s | 587 |
| CCCNC(=O)C1CCCN(c2ccc(SCC(=O)Nc3ccc(C(=O)OCC)cc3)nn2)C1 (configuration not stated) | s | 701 |
